conditions: in n-propanol, 293.15 K
property_name: solubility (mole fraction)
API note: the answer field is a bare number with no unit suffix.

// query Form field: reported solubility (mole fraction) of `N#Cc1cccc([N+](=O)[O-])c1C#N`
// result 0.00132

---

details: in water, 278.15 K
property_name: solubility (mole fraction)

// query Form field: reported solubility (mole fraction) of `N#Cc1cccc([N+](=O)[O-])c1C#N`
// result 5.32e-05

---

conditions: in toluene, 303.15 K
property_name: solubility (mole fraction)

// query Form field: reported solubility (mole fraction) of `N#Cc1cccc([N+](=O)[O-])c1C#N`
// result 0.00254
